Test: inhibitors of DENV2 cytopathic effect, primary screen, cell-based, plate reader, single concentration (AID 651640);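 note: 0% = median of neutral control wells and 100% = median of positive control wells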
Details: DENV2-infected cells, cytopathic effect rescue, at 9.99 µM, stronger effect = higher value
In all, about 350,000 compounds went through this assay and about 6,000 (1.7%) were called active. Another 5% or so got no clear call; they are omitted. Shown is part of a subset that was picked to be rich in actives.
For each record, write down the corresponding CPE inhibition.

Example compounds with recorded CPE inhibition:
CCCNC(=O)N1C[C@@H](O)COC[C@H]2O[C@@H](CC(=O)NCCCN3CCOCC3)CC[C@@H]21 = -1.62% (inactive)
CCC(=O)N1CC2(CN(C(=O)Nc3ccccc3F)C2)c2c([nH]c3cc(OC)ccc23)[C@H]1CO = 10.3% (inactive)

Data request, read-out CPE inhibition, for C[C@H](O)C#Cc1ccc2c(c1)O[C@H](CN(C)Cc1ccccn1)[C@@H](C)CN([C@@H](C)CO)S2(=O)=O
3.01% (inactive)

----------
Experiment: inhibitors of DENV2 cytopathic effect, primary screen, cell-based, plate reader, single concentration (AID 651640);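 note: 0% = median of neutral control wells and 100% = median of positive control wells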
Settings: DENV2-infected cells, cytopathic effect rescue, at 9.99 µM, stronger effect = higher value
Out of some 350,000 compounds screened, about 6,000 (1.7%) were called active. Not shown: some 5% with an inconclusive outcome. The list comes from a sample in which actives are over-represented; it also holds close analogues and randomly drawn compounds.
For each record, write down the corresponding CPE inhibition.
Numbers only, in %.

Example compounds with recorded CPE inhibition:
COc1ccc(-c2ccc3c(c2)[C@H]2[C@H](CCN2C(=O)c2ccc4c(c2)OCO4)[C@@H](CO)N3)cc1 = -26.6
C[C@H](CO)N1C[C@H](C)[C@H](CN(C)S(C)(=O)=O)Oc2ccc(NC(=O)c3ccncc3)cc2CC1=O = -1.49
COC(=O)c1c(-c2ccc(OC)cc2)c2c(c3c4ccccc4n(S(=O)(=O)c4ccc(C)cc4)c13)C(=O)N(C)C2 = 2.43

Can you give me CPE inhibition for all of these, one by one?
1. O=C(C[C@@H]1C[C@H]2c3cc(NC(=O)NC4CCCCC4)ccc3O[C@H]2[C@H](CO)O1)NCc1ccncc1
2. C[C@H]1CN([C@@H](C)CO)C(=O)Cc2cc(NC(=O)Nc3cccc4ccccc34)ccc2O[C@@H]1CN(C)S(C)(=O)=O
3. Cc1ccccc1S(=O)(=O)N1[C@@H](c2cccc(Cl)c2)C(C(=O)OC(C)(C)C)=CC[C@H]1c1ccc(Cl)cc1
4. COc1ccc(CN(C)C[C@@H]2Oc3ccc(NC(=O)Nc4ccc(F)cc4)cc3CC(=O)N([C@@H](C)CO)C[C@H]2C)cc1

1: -3.13; 2: -2.56; 3: -8.63; 4: 2.99

Can you give me CPE inhibition for all of these, one by one?
1. O=C(C[C@@H]1CC[C@@H](NS(=O)(=O)c2ccccc2)[C@H](CO)O1)NCc1ccc(Cl)c(Cl)c1
2. CNC[C@@H]1Oc2cc(C#Cc3ccc(F)cc3)ccc2S(=O)(=O)N([C@@H](C)CO)C[C@H]1C
3. O=C(C[C@H]1CC[C@H](NC(=O)Nc2ccc(C(F)(F)F)cc2)[C@H](CO)O1)NCCN1CCCC1
4. COc1cccc(-c2ccc3c(c2)O[C@H](CN(C)C(=O)c2ccccc2F)[C@@H](C)CN([C@@H](C)CO)S3(=O)=O)c1
5. C[C@H](CO)N1C[C@H](C)[C@H](CN(C)Cc2ccc(-c3ccccc3)cc2)Oc2ccc(NC(=O)Nc3ccc(F)cc3)cc2CC1=O

3.78
7.09
1.56
-3.52
33.6
